Test: in vitro
Conditions: human, MT4 cells, mock-infected (CC50) and HIV1 3B infected (EC50)
Description: Selectivity index, ratio of CC50 for toxicity in mock-infected human MT4 cells assessed as reduction in cell viability by MTT assay to EC50 for antiviral activity against HIV1 3B infected in human MT4 cells assessed as protection against viral-induced cytopathogenecity by MTT assay
Collected selectivity ratio values appear next to each entry.
Please give the numeric answer without any surrounding text.

Take a look at these entries with their results.
smiles_entry	selectivity ratio
Cc1cc(C)cc(S(=O)(=O)c2c(C(=O)NCCCNC(=O)c3ccc(B(O)O)cc3)[nH]c3ccc(Cl)cc23)c1	2240
Cc1cc(C)cc(S(=O)(=O)c2c(C(=O)NCc3ccc(B4OC(C)(C)C(C)(C)O4)cc3)[nH]c3ccc(Cl)cc23)c1	3550

What the record says about `Cc1cc(C)cc(S(=O)(=O)c2c(C(=O)NC3CCN(Cc4cccc(B(O)O)c4)CC3)[nH]c3ccc(Cl)cc23)c1` : selectivity ratio is 151

###

Assay: in vitro
Conditions: human, MT4 cells, mock-infected (CC50) and HIV1 3B infected (EC50)
Collected selectivity ratio values appear next to each entry.

smiles_entry	measured_value
Cc1cc(C)cc(S(=O)(=O)c2c(C(=O)NCCNC(=O)c3ccc(B(O)O)cc3)[nH]c3ccc(Cl)cc23)c1	1230

What the record says about `Cc1cc(C)cc(S(=O)(=O)c2c(C(=O)Nc3ccc(B(O)O)cc3)[nH]c3ccc(Cl)cc23)c1` : selectivity ratio is 712

What the record says about `Cc1cn([C@H]2C[C@H](N=[N+]=[N-])[C@@H](CO)O2)c(=O)[nH]c1=O` : selectivity ratio is > 352

What the record says about `Cc1cc(C)cc(S(=O)(=O)c2c(C(=O)Nc3cccc(B(O)O)c3)[nH]c3ccc(Cl)cc23)c1` : selectivity ratio is 282

###

Assay: Toxicity in mock-infected human MT4 cells assessed as reduction in cell viability by MTT assay
Type: cell-based
Collected CC50 values appear next to each entry.
Return type: number; implicit unit µM.

smiles_entry	CC50 (µM)
Cc1cc(C)cc(S(=O)(=O)c2c(C(=O)NCCNC(=O)c3ccc(B(O)O)cc3)[nH]c3ccc(Cl)cc23)c1	24.4

Please find the next molecule below.
What the record says about `Cc1cc(C)cc(S(=O)(=O)c2c(C(=O)NCc3ccc(B(O)O)cc3)[nH]c3ccc(Cl)cc23)c1` : CC50 is 27.7

###

Assay: Solubility in water at pH 2
Format: physicochemical
value_kind: solubility (µg/mL)
Return type: number; implicit unit µg/mL.

Take a look at these entries with their results.
smiles_entry	u	solubility
Cc1cc(C)cc(S(=O)(=O)c2c(C(=O)NCc3ccc(B4OC(C)(C)C(C)(C)O4)cc3)[nH]c3ccc(Cl)cc23)c1	µg/mL	73
Cc1cc(C)cc(S(=O)(=O)c2c(C(N)=O)[nH]c3ccc(Cl)cc23)c1	µg/mL	71.2

Please find the next compound below.
What the record says about `Cc1cc(C)cc(S(=O)(=O)c2c(C(=O)NCc3cccc(B(O)O)c3)[nH]c3ccc(Cl)cc23)c1` : solubility is 64

###

Collected pEC50 values appear next to each entry.
Test system: Human immunodeficiency virus 1
Assay type: functional, organism-based
Conditions: Human immunodeficiency virus 1, MT4
# pEC50 is unitless: minus log10 of the molar concentration; print number only

Take a look at these entries with their results.
compound	value_kind	measured_value
Cc1cc(C)cc(S(=O)(=O)c2c(C(=O)NCCCNC(=O)c3ccc(B(O)O)cc3)[nH]c3ccc(Cl)cc23)c1	pEC50	5.65
Cc1cn([C@H]2C[C@H](N=[N+]=[N-])[C@@H](CO)O2)c(=O)[nH]c1=O [ZIDOVUDINE]	pEC50	7.92
Cc1cc(C)cc(S(=O)(=O)c2c(C(=O)NCCNC(=O)c3ccc(B(O)O)cc3)[nH]c3ccc(Cl)cc23)c1	pEC50	5.17

What the record says about `Cc1cc(C)cc(S(=O)(=O)c2c(C(=O)NCCCNC(=O)c3cccc(B(O)O)c3)[nH]c3ccc(Cl)cc23)c1` : pEC50 is 5.74

What the record says about O=C1Nc2ccc(Cl)cc2[C@@](C#CC2CC2)(C(F)(F)F)O1 [EFAVIRENZ] : pEC50 is 6.68

What the record says about `Cc1cc(C)cc(S(=O)(=O)c2c(C(=O)NCc3ccc(B(O)O)cc3)[nH]c3ccc(Cl)cc23)c1` : pEC50 is 5.41

What the record says about `Cc1cc(C)cc(S(=O)(=O)c2c(C(=O)NCCNC(=O)c3cccc(B(O)O)c3)[nH]c3ccc(Cl)cc23)c1` : pEC50 is 5.09

What the record says about Nc1ccn([C@@H]2CS[C@H](CO)O2)c(=O)n1 [LAMIVUDINE] : pEC50 is 5.34

What the record says about `Cc1cc(C)cc(S(=O)(=O)c2c(C(=O)NCc3cccc(B(O)O)c3)[nH]c3ccc(Cl)cc23)c1` : pEC50 is 6.05

What the record says about `Cc1cc(C)cc(S(=O)(=O)c2c(C(=O)NCc3ccc(B4OC(C)(C)C(C)(C)O4)cc3)[nH]c3ccc(Cl)cc23)c1` : pEC50 is 5.59

What the record says about `Cc1cc(C)cc(S(=O)(=O)c2c(C(N)=O)[nH]c3ccc(Cl)cc23)c1` : pEC50 is 5.93

###

Collected IC50 values appear next to each entry.
Biological target: Human immunodeficiency virus type 1 reverse transcriptase (Human immunodeficiency virus 1, UniProt Q72547)
Return type: number; implicit unit nM.

smiles_entry	value_kind	u	measured_value
Cc1cc(C)cc(S(=O)(=O)c2c(C(N)=O)[nH]c3ccc(Cl)cc23)c1	IC50	nM	4.8

What the record says about `Cc1cc(C)cc(S(=O)(=O)c2c(C(=O)NCc3cccc(B(O)O)c3)[nH]c3ccc(Cl)cc23)c1` : IC50 is 124

What the record says about `Cc1cc(C)cc(S(=O)(=O)c2c(C(=O)NCc3ccc(B4OC(C)(C)C(C)(C)O4)cc3)[nH]c3ccc(Cl)cc23)c1` : IC50 is 119

###

Collected solubility values appear next to each entry.
Test: Solubility in water at pH 7.4
Type: physicochemical
Return type: number; implicit unit µg/mL.

Take a look at these entries with their results.
smiles_entry	u	solubility
Cc1cc(C)cc(S(=O)(=O)c2c(C(N)=O)[nH]c3ccc(Cl)cc23)c1	µg/mL	29
Cc1cc(C)cc(S(=O)(=O)c2c(C(=O)NCc3ccc(B4OC(C)(C)C(C)(C)O4)cc3)[nH]c3ccc(Cl)cc23)c1	µg/mL	37.7

What the record says about `Cc1cc(C)cc(S(=O)(=O)c2c(C(=O)NCc3cccc(B(O)O)c3)[nH]c3ccc(Cl)cc23)c1` : solubility is 94.5

###

Collected solubility values appear next to each entry.
Assay: Solubility in water at pH 7
Assay type: physicochemical
Return type: number; implicit unit µg/mL.

Take a look at these entries with their results.
smiles_entry	u	measured_value
Cc1cc(C)cc(S(=O)(=O)c2c(C(=O)NCc3cccc(B(O)O)c3)[nH]c3ccc(Cl)cc23)c1	µg/mL	70
Cc1cc(C)cc(S(=O)(=O)c2c(C(N)=O)[nH]c3ccc(Cl)cc23)c1	µg/mL	58.3

Please find the next molecule below.
What the record says about `Cc1cc(C)cc(S(=O)(=O)c2c(C(=O)NCc3ccc(B4OC(C)(C)C(C)(C)O4)cc3)[nH]c3ccc(Cl)cc23)c1` : solubility is 35.8

###

Collected CC50 values appear next to each entry.
Test: Toxicity in mock-infected human MT4 cells assessed as reduction in cell viability by MTT assay
Type: cell-based
Return type: number; implicit unit µM.

smiles_entry	CC50 [µM]
Cc1cc(C)cc(S(=O)(=O)c2c(C(=O)NC3CCN(Cc4ccc(B(O)O)cc4)CC3)[nH]c3ccc(Cl)cc23)c1	19.3

What the record says about `Cc1cc(C)cc(S(=O)(=O)c2c(C(=O)Nc3cccc(B(O)O)c3)[nH]c3ccc(Cl)cc23)c1` : CC50 is 5.31

What the record says about `Cc1cc(C)cc(S(=O)(=O)c2c(C(=O)NCCNC(=O)c3cccc(B(O)O)c3)[nH]c3ccc(Cl)cc23)c1` : CC50 is 21.1

What the record says about `Cc1cc(C)cc(S(=O)(=O)c2c(C(=O)NC3CCN(Cc4cccc(B(O)O)c4)CC3)[nH]c3ccc(Cl)cc23)c1` : CC50 is 6.43

What the record says about `Cc1cc(C)cc(S(=O)(=O)c2c(C(=O)Nc3ccc(B(O)O)cc3)[nH]c3ccc(Cl)cc23)c1` : CC50 is 8.55

What the record says about `Cc1cc(C)cc(S(=O)(=O)c2c(C(N)=O)[nH]c3ccc(Cl)cc23)c1` : CC50 is 7.08

What the record says about `Cc1cc(C)cc(S(=O)(=O)c2c(C(=O)Nc3ccc4c(c3)B(O)OC4)[nH]c3ccc(Cl)cc23)c1` : CC50 is 8.42

What the record says about `Cc1cc(C)cc(S(=O)(=O)c2c(C(=O)NCCCNC(=O)c3cccc(B(O)O)c3)[nH]c3ccc(Cl)cc23)c1` : CC50 is 24.2

###

Test: Toxicity in mock-infected human MT4 cells assessed as reduction in cell viability by MTT assay
Type: cell-based
value_kind: CC50

Take a look at these entries with their results.
smiles_entry	CC50
Cc1cn([C@H]2C[C@H](N=[N+]=[N-])[C@@H](CO)O2)c(=O)[nH]c1=O	> 7.48 µM
Cc1cc(C)cc(S(=O)(=O)c2c(C(=O)NCc3ccc(B4OC(C)(C)C(C)(C)O4)cc3)[nH]c3ccc(Cl)cc23)c1	23.9 µM
O=C1Nc2ccc(Cl)cc2[C@@](C#CC2CC2)(C(F)(F)F)O1	> 6.34 µM
Cc1cc(C)cc(S(=O)(=O)c2c(C(=O)NCc3cccc(B(O)O)c3)[nH]c3ccc(Cl)cc23)c1	28 µM

What the record says about `Nc1ccn([C@@H]2CS[C@H](CO)O2)c(=O)n1` : CC50 is > 87.2 µM

What the record says about `Cc1cc(C)cc(S(=O)(=O)c2c(C(=O)NCCCNC(=O)c3ccc(B(O)O)cc3)[nH]c3ccc(Cl)cc23)c1` : CC50 is 24.7 µM

What the record says about `Cc1ccnc2c1NC(=O)c1cccnc1N2C1CC1` : CC50 is > 15 µM

What the record says about `Cc1cc(C#N)cc(C)c1Oc1nc(Nc2ccc(C#N)cc2)nc(N)c1Br` : CC50 is > 4.59 µM
